# Tested on: Trypanosoma cruzi (Tulahuen C2C4 strain)
# assaySummary: American trypanosome protozoa growth inhibition screening test (CPRG/Nonidet, 96 hours)
# Type: cell-based
# particulars: Trypanosoma cruzi; Tulahuen C2C4 strain in rat L6 cells, 96 hours culture; read-out: 50% growth inhibiting concentration Trypanosoma cruzi
Readings of IC50 for the listed compounds
quantity: IC50 (µM)

>>> df
                                   compound  resultvalue
0  CCn1c(=O)/c(=c2\s/c(=C3/Sc4ccccc4N3C)c(=O)n2CC)s/c1=C\c1sc2ccccc2[n+]1C           14
1  CCn1c(=O)/c(=C2\SCCN2C)s/c1=C\c1sc2ccc3ccccc3c2[n+]1CC           40
2  CCn1c(=O)c(=C2C=CN(C)C=C2)s/c1=C\c1sc2c3ccccc3ccc2[n+]1CC           48
3  O=C(Cn1ccnc1[N+](=O)[O-])NCc1ccccc1 [benznidazole, reference compound]         0.87
4  CCn1c(=O)/c(=C2\Sc3ccccc3N2C)s/c1=C\c1cccc[n+]1CCOCCOCCOC           29
5  CCn1c(=O)/c(=C2\C=CN(C)c3ccccc32)s/c1=C\c1oc2ccccc2[n+]1CC         0.53
6  CCn1c(=O)/c(=C2\Oc3c(ccc4ccccc34)N2C)s/c1=C\C1=[N+](CC)CCS1         0.35
7  CCn1c(=O)/c(=C2\Oc3ccc4ccccc4c3N2C)s/c1=C\c1scc(C)[n+]1C         0.22

---

Readings of Selective toxicity for the listed compounds
# System: Trypanosoma cruzi (Tulahuen C2C4 strain)
# assaySummary: American trypanosome protozoa growth inhibition screening test (CPRG/Nonidet, 96 hours)
# Format: cell-based
# particulars: chemotherapy index, rat L6 cells versus American trypanosome protozoa
quantity: Selective toxicity

>>> print(df.to_string())
                                   compound  qualifyingsign  resultvalue
0  CCn1c(=O)/c(=C2\C=CN(C)c3ccccc32)s/c1=C\c1oc2ccccc2[n+]1CC [A-2]               =           10
1  CCn1c(=O)c(=C2C=CN(C)C=C2)s/c1=C\c1sc2c3ccccc3ccc2[n+]1CC [A-1]               =          2.8
2  CCn1c(=O)/c(=C2\Oc3c(ccc4ccccc34)N2C)s/c1=C\C1=[N+](CC)CCS1 [B-10]               =           53
3  CCn1c(=O)/c(=C2\SCCN2C)s/c1=C\c1sc2ccc3ccccc3c2[n+]1CC [B-1]               =          4.8
4  CCn1c(=O)/c(=C2\Sc3ccccc3N2C)s/c1=C\c1cccc[n+]1CCOCCOCCOC [B-5]               =          4.3
5  CCn1c(=O)/c(=c2\s/c(=C3/Sc4ccccc4N3C)c(=O)n2CC)s/c1=C\c1sc2ccccc2[n+]1C [C-1]               >           10
6  CCn1c(=O)/c(=C2\Oc3ccc4ccccc4c3N2C)s/c1=C\c1scc(C)[n+]1C [B-9]               =           65

---

Readings of IC50 at 72 h for the listed compounds
# assaySummary: Growth inhibition test of rat L6 cells (Alamar Blue, 72 hours)
# Format: cell-based
# particulars: L6 cells (rat skeletal myoblasts), 72 hours culture, Table 1, read-out: 50% growth inhibiting concentration Cytotoxicity L6
quantity: IC50 at 72 h (µM)

>>> df
                                 itemsmiles  unitslabel  qualifyingsign  resultvalue
0  CCn1c(=O)/c(=C2\Oc3ccc4ccccc4c3N2C)s/c1=C\c1scc(C)[n+]1C          µM               =         14.2
1  CCn1c(=O)/c(=c2\s/c(=C3/Sc4ccccc4N3C)c(=O)n2CC)s/c1=C\c1sc2ccccc2[n+]1C          µM               >          140
2  CCn1c(=O)/c(=C2\Oc3c(ccc4ccccc34)N2C)s/c1=C\C1=[N+](CC)CCS1          µM               =         18.5
3  CCn1c(=O)c(=C2C=CN(C)C=C2)s/c1=C\c1sc2c3ccccc3ccc2[n+]1CC          µM               =          134
4  CCn1c(=O)/c(=C2\Sc3ccccc3N2C)s/c1=C\c1cccc[n+]1CCOCCOCCOC          µM               =          125
5  CCn1c(=O)/c(=C2\C=CN(C)c3ccccc32)s/c1=C\c1oc2ccccc2[n+]1CC          µM               =          6.4
6  CCn1c(=O)/c(=C2\SCCN2C)s/c1=C\c1sc2ccc3ccccc3c2[n+]1CC          µM               =          193
7  CCn1c(=O)/c(=C2\Sc3ccccc3N2C)s/c1=C\c1cccc[n+]1CCOCCOCCO          µM               =         61.9
